Would you mind telling me the reported Activity of each entry?
test-system: Aurora kinase B (Homo sapiens, UniProt Q96GD4)
Sequence (Q96GD4 whole entry): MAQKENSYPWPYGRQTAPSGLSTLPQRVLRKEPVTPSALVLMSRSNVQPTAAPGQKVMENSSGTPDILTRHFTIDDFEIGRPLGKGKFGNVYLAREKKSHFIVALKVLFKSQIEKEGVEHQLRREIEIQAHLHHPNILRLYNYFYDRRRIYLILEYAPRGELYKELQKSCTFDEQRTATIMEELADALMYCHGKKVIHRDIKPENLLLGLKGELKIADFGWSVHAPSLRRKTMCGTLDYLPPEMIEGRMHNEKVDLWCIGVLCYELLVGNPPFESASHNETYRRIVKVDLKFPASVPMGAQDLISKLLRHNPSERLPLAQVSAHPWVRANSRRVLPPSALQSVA
experiment-description: Inhibition of recombinant full length human aurora B expressed in baculovirus infected Sf9 insect cells assessed as residual activity at 10 uM using MBP as substrate in presence of [gamma-33P]ATP
Number in %, nothing else.

For "O=C1C2=C(C(=O)N1O)c1cn(c3ccccc13)CCCCCCn1cc2c2ccccc21" the compound record lists Activity as 97

For "Cn1cc(C2=C(c3cn(CCCCCC(=O)O)c4ccccc34)C(=O)N(O)C2=O)c2ccccc21" the compound record lists Activity as 71

For "O=C1C(c2c[nH]c3ccccc23)=C(c2c[nH]c3ncccc23)C(=O)N1O" the compound record lists Activity as 61

For "Cn1cc(C2=C(c3cn(CCCCCC#N)c4ccccc34)C(=O)N(O)C2=O)c2ccccc21" the compound record lists Activity as 71

For "CCn1cc(C2=C(c3cn(C)c4ccccc34)C(=O)N(O)C2=O)c2ccccc21" the compound record lists Activity as 98

For "Cn1cc(C2=C(c3c[nH]c4ccccc34)C(=O)N(O)C2=O)c2ccccc21" the compound record lists Activity as 79

For "CC(C)n1cc(C2=C(c3c[nH]c4ccccc34)C(=O)N(O)C2=O)c2ccccc21" the compound record lists Activity as 147

For "Cn1cc(C2=C(c3cn(C)c4ncccc34)C(=O)NC2=O)c2ccccc21" the compound record lists Activity as 84

For "CC(C)n1cc(C2=C(c3cn(C)c4ccccc34)C(=O)N(O)C2=O)c2ccccc21" the compound record lists Activity as 95

For "N#CCCCCCn1cc(C2=C(c3cn(CCCCCC#N)c4ccccc34)C(=O)N(O)C2=O)c2ccccc21" the compound record lists Activity as 75
